studySystem: human 5HT2C receptor (Homo sapiens, UniProt P28335)
Sequence (P28335 33-458): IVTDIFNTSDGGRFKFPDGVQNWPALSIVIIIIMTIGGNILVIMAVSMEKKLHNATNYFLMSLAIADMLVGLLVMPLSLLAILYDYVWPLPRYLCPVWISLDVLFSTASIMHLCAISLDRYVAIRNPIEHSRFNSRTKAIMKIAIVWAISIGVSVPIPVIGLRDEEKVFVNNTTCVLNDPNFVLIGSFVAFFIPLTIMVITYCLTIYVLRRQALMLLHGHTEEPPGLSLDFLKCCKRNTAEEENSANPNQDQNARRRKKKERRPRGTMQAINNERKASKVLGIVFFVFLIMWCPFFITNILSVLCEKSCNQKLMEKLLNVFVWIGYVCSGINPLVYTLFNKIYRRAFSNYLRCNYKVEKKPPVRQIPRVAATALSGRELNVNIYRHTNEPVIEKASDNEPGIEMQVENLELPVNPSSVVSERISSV
testMethodNotes: Intracellular IP3 Accumulation Assay
conditionInfo: HEK293 cells transfected with human 5HT2C receptor; averages of at least two trials; read-out: 5-HT2C (IC50) IP Accumulation Assay
Counter-ions that a name gives are not always drawn.
I'd be grateful if you could share measured IC50 for these entries.
Answers are plain numbers, in nM.

- compound: "COc1cc2c(cc1Cc1ccccc1)C(C)CNCC2 (racemic) [Example 14, hydrochloride]"
  studySystem: "human 5HT2C receptor (Homo sapiens, UniProt P28335)"
  value: 7

Now let's try a different one.
Ask: Item C[C@@H]1CNCCc2cc(Cc3ccccc3)c(Cl)cc21 [Example 13, hydrochloride] : provide IC50
Reply: 30
